- systemTested: Sema3A (Mus musculus, UniProt O08665)
- Construct: expressed in transfected cells; host or cells: COS7
- Sequence (O08665 21-772): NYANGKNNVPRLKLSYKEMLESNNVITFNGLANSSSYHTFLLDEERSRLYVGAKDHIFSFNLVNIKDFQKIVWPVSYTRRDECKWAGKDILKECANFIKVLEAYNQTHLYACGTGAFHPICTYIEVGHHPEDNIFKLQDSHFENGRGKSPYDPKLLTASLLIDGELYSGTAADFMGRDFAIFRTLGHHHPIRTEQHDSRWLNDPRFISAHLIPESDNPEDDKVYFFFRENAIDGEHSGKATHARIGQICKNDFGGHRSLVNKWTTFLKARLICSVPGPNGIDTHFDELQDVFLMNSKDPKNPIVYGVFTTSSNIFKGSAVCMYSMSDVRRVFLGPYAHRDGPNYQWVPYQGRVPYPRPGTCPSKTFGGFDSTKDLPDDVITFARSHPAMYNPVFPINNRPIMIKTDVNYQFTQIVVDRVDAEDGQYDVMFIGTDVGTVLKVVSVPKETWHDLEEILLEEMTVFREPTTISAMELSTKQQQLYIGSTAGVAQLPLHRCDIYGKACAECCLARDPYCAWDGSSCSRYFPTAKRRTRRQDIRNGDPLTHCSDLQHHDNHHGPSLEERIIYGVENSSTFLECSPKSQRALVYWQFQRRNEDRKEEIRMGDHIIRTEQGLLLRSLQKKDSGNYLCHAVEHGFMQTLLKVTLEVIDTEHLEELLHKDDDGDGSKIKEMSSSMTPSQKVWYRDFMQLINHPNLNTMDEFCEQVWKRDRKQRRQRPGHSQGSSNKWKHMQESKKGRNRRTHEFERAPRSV
- measurementProtocol: Collagen gel co-culture: suppression of neurite outgrowth inhibitory action of Sema3A
- Format: cell-based
- Set-up: key: neurites outgrew in a complete concentric circular shape just like for the control groups where Sema3A-non-expressing COS7 cells were used, it was scored +++ (a strong inhibitory effect for Sema3A); outgrowth was found almost in a concentric circular shape accompanied with a little suppression of the outgrowth toward the direction of Sema3A-expressing COS cells, it was scored ++; outgrowth toward the direction of Sema3A-expressing COS cells is fairly suppressed to present a crescent shape, it was scored +; outgrowth toward the direction of Sema3A-expressing COS cells was not found at all (no inhibitory effect for Sema3A), it was scored −
- testConditions: 2 μg/ml compound; Example 16
valueType: inhibition of neurite outgrowth-inhibitory action of Sema3A, score

Recorded results for 5 compounds are shown here.
>>> df
                                   compound                           systemtested  measuredvalue
0  CC(=O)c1cc2c(=O)c3c(C(=O)O)cc(O)cc3oc2c(C(C)=O)c1-c1coc2cc(O)c(O)c(C(=O)O)c2c1=O  Sema3A (Mus musculus, UniProt O08665)              −
1  CC(=O)c1c(C)c(C(=O)C2COc3cc(O)c(O)c(C(=O)O)c3C2=O)cc2c(=O)c3cc(O)c(O)cc3oc12 (stereo not shown)  Sema3A (Mus musculus, UniProt O08665)            +++
2  CC(=O)c1cc2c(=O)c3c(C(=O)O)c(O)c(O)cc3oc2c(C(C)=O)c1-c1coc2cc(O)c(O)c(C(=O)O)c2c1=O  Sema3A (Mus musculus, UniProt O08665)             ++
3  CC(=O)c1c(C)c(C(=O)C2COc3cc(O)c(O)c(C(=O)O)c3C2=O)cc2c(=O)c3c(C(=O)O)cc(O)cc3oc12 (stereo not shown)  Sema3A (Mus musculus, UniProt O08665)              +
4  CC(=O)c1cc2c(=O)c3cc(O)c(O)cc3oc2c(C(C)=O)c1-c1coc2cc(O)c(O)c(C(=O)O)c2c1=O  Sema3A (Mus musculus, UniProt O08665)            +++

Lab note: each compound below needs its inhibition of neurite outgrowth-inhibitory action of Sema3A, score filled in.
1. CC(=O)c1cc2c(=O)c3c(C(=O)O)c(O)c(O)cc3oc2c(C(C)=O)c1-c1coc2cc(O)cc(C(=O)O)c2c1=O
2. COCc1c(-c2cc3c(=O)c4c(C(=O)O)c(O)c(O)cc4oc3c(C(C)=O)c2C)oc2cc(O)c(O)c(C(=O)O)c2c1=O

1: +; 2: ++

----------
- systemTested: Sema3A (Mus musculus, UniProt O08665)
- Construct: expressed in transfected cells; host or cells: COS7
- measurementProtocol: Collagen gel co-culture: suppression of neurite outgrowth inhibitory action of Sema3A
- Format: cell-based
- Parameters: key: neurites outgrew in a complete concentric circular shape just like for the control groups where Sema3A-non-expressing COS7 cells were used, it was scored +++ (a strong inhibitory effect for Sema3A); outgrowth was found almost in a concentric circular shape accompanied with a little suppression of the outgrowth toward the direction of Sema3A-expressing COS cells, it was scored ++; outgrowth toward the direction of Sema3A-expressing COS cells is fairly suppressed to present a crescent shape, it was scored +; outgrowth toward the direction of Sema3A-expressing COS cells was not found at all (no inhibitory effect for Sema3A), it was scored −
- testConditions: 6 μg/ml compound; Example 16
valueType: inhibition of neurite outgrowth-inhibitory action of Sema3A, score

                                   compound                           systemtested  measuredvalue
0  CC(=O)c1c(C)c(C(=O)C2COc3cc(O)c(O)c(C(=O)O)c3C2=O)cc2c(=O)c3c(C(=O)O)cc(O)cc3oc12 (stereo not shown)  Sema3A (Mus musculus, UniProt O08665)              +
1  CC(=O)c1cc2c(=O)c3c(C(=O)O)c(O)c(O)cc3oc2c(C(C)=O)c1-c1coc2cc(O)cc(C(=O)O)c2c1=O  Sema3A (Mus musculus, UniProt O08665)              +
2  CC(=O)c1cc2c(=O)c3c(C(=O)O)cc(O)cc3oc2c(C(C)=O)c1-c1coc2cc(O)c(O)c(C(=O)O)c2c1=O  Sema3A (Mus musculus, UniProt O08665)              +
3  COCc1c(-c2cc3c(=O)c4c(C(=O)O)c(O)c(O)cc4oc3c(C(C)=O)c2C)oc2cc(O)c(O)c(C(=O)O)c2c1=O  Sema3A (Mus musculus, UniProt O08665)             ++
